targetOrTestSystem: T1, human IL-23R endogenously expressed on DB cells (CRL-2289) (human, UniProt Q5VWK5 24-629)
T1 sequence (looked up): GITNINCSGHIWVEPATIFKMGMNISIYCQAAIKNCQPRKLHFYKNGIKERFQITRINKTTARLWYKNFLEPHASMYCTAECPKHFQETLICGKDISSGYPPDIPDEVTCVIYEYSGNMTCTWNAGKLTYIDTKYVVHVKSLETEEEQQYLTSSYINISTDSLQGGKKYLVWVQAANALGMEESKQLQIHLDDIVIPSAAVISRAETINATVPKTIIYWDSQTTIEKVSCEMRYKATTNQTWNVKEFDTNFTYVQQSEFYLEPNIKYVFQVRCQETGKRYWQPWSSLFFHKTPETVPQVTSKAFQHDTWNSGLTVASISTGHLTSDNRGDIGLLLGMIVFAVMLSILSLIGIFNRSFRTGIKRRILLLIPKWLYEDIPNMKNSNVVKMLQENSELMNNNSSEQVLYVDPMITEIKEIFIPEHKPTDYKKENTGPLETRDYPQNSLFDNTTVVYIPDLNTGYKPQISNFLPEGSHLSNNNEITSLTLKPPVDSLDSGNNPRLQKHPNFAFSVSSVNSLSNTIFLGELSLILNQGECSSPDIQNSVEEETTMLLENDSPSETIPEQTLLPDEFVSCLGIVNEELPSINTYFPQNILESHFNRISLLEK
experiment: cell-based or functional assay
Bridges are numbered along the chain shown (N, C = ends). Where no end group is shown, it is not given here. [ ]: non-standard residue; d: D form. 1,3‑dibromopropan‑2‑one = linker (CAS 816-39-7) joining two Cys as 1,3-dithio-propan-2-one bridge -SCH2C(=O)CH2S-; 2Nal = N[C@@H](Cc1ccc2ccccc2c1)C(=O)O; AEF = NCCOc1ccc(C[C@H](N)C(=O)O)cc1; 3Pal = N[C@@H](Cc1cccnc1)C(=O)O; αMeV = CC(C)[C@](C)(N)C(=O)O; 3Amb = NCc1cccc(C(=O)O)c1; Dab = NCC[C@H](N)C(=O)O
IC50 (pSTAT3) overview

1) Ac-DKSCWQCW[2Nal]LER-NH2 (lactam 2-11; bridge 4-7; not fully specified (bridges); printed as [Ac]-DK(1c)SC(2e)WQC(2e)W[2-Nal]LE(1c)R-[NH2]) [Compound 21] | > 1 µM
2) [3Amb]IEWQ[Dab][AEF][2Nal][αMeV]E[Dab][3Pal]-NH2 (lactam (positions not given here); lactam 3-6; not fully specified (bridges)) [Compound 156] | 85.7 pM
3) Ac-DESCWQCWALKR-NH2 (lactam 2-11; linker 4-7 via 1,3‑dibromopropan‑2‑one) [Compound 15] | > 1 µM

Value of measured IC50 (pSTAT3) for the entry DESTWQYWWLKR (HELM PEPTIDE1{D.E.S.T.W.Q.Y.W.W.L.K.R.[am]}$PEPTIDE1,PEPTIDE1,2:R3-11:R3$$$V2.0; SMILES CC(C)C[C@@H]1NC(=O)[C@H](Cc2c[nH]c3ccccc23)NC(=O)[C@H](Cc2c[nH]c3ccccc23)NC(=O)[C@H](Cc2ccc(O)cc2)NC(=O)[C@H](CCC(N)=O)NC(=O)[C@H](Cc2c[nH]c3ccccc23)NC(=O)[C@H]([C@@H](C)O)NC(=O)[C@H](CO)NC(=O)[C@@H](NC(=O)[C@@H](N)CC(=O)O)CCC(=O)NCCCC[C@@H](C(=O)N[C@@H](CCCNC(=N)N)C(N)=O)NC1=O) [Ref 3] : > 1 µM
